Entry source: the Human Domainome abundance scans (Beltran et al. 2025)

Each entry below carries its reported abundance fitness.
B1: Retinoic acid receptor beta, residues 85 to 161; numbered along this chain, P10826 (parent)
chain: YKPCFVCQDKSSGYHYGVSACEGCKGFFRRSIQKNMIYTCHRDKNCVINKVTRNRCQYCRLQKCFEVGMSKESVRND

Variants of: B1
experimentalDetails: abundance fitness (aPCA) (normalised: wild type 0, dead -1); higher = more abundant; growth selection in yeast, the domain comes from the species named
setupConditions: Homo sapiens
Number, no unit, nothing else.

Below, 3 variants whose answers are already recorded.
Query: # input variant: YKPCFVCQDKSSGYHYGVSACEGCKGFFRRSIQNNMIYTCHRDKNCVINKVTRNRCQYCRLQKCFEVGMSKESVRND ; wanted: its abundance fitness
Response: 0.089

Query: I would be grateful if you could share the reported abundance fitness for YKPCFVCQDKSSGYHYGVSACEGCKGFFRRSIQKNMIYTCHWDKNCVINKVTRNRCQYCRLQKCFEVGMSKESVRND .
Response: 0.15

Query: Request the reported abundance fitness associated with YKPCFVCQDDSSGYHYGVSACEGCKGFFRRSIQKNMIYTCHRDKNCVINKVTRNRCQYCRLQKCFEVGMSKESVRND
Response: 0.112

Okay, now this variant:
Query: Dear colleague, I am looking for the recorded abundance fitness of the following variant: YKPCFVCQDKSSGYHYGVSACEGCKGFFRRRIQKNMIYTCHRDKNCVINKVTRNRCQYCRLQKCFEVGMSKESVRND
Response: -0.559
